Biological target: GDP-bound KRAS wild-type protein (Homo sapiens)
Sequence (P01116 1-188 isoform P01116-2): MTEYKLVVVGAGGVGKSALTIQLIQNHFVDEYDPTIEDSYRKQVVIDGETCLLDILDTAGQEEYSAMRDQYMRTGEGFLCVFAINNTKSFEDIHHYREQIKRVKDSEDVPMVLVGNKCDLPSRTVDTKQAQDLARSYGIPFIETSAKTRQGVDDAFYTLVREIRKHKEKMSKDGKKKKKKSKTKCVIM
Experiment: Binding to KRAS by surface plasmon resonance (SPR), dissociation constant KD
Details: Single Cycle Kinetics, 1:1 binding model
Value type: pKd
Answers are plain numbers, as −log10 of the molar value.

Before answering, review these 3 worked examples.
CC[C@H](C)[C@@H]1NC(=O)[C@H](CC)N(C)C(=O)C[C@@H](C(=O)N(C)C)N(C)C(=O)[C@H](C2CCCC2)N(C)C(=O)C2(CCC2)NC(=O)[C@@H]2C[C@H](C)CN2C(=O)[C@H](CCc2cc(F)c(C(F)(F)F)c(F)c2)NC(=O)CN(C)C(=O)[C@H](Cc2ccc(C(F)(F)F)cc2)N2CC/C=C\C[C@@H](C2=O)N(C)C(=O)CN(C)C1=O [PP1134]; 10.22
CCO[C@@H]1C[C@H]2C(=O)NC3(CCC3)C(=O)N(C)[C@@H](C(CC)CC)C(=O)N(C)[C@H](C(=O)N(C)C)CC(=O)N(C)[C@@H](CC3CC3)C(=O)N[C@@H]([C@@H](C)CC)C(=O)N(C)CC(=O)N(C)[C@H]3C/C=C\CCN(C3=O)[C@@H](Cc3ccc(C(F)(F)F)cc3)C(=O)N(C)CC(=O)N[C@@H](CCc3ccc(C(F)(F)F)c(OC)c3)C(=O)N2C1 [PP1211]; 9.57
CCCN(C)C(=O)[C@@H]1CC(=O)N(C)[C@@H](C2CCC2)C(=O)N[C@@H]([C@@H](C)CC)C(=O)N(C)CC(=O)N(C)[C@H]2C/C=C\CCN(C2=O)[C@@H](Cc2ccc(C(F)(F)F)cc2)C(=O)N(C)CC(=O)N[C@@H](CCc2ccc(C(F)(F)F)c(OC)c2)C(=O)N2C[C@H](OCC)C[C@H]2C(=O)NC2(CCC2)C(=O)N(C)[C@@H](C2CCCC2)C(=O)N1C [PP2023]; 9.96

We now examine a further molecule.
## Input Request body: readout pKd, system GDP-bound KRAS wild-type protein (Homo sapiens), query CC[C@H](C)[C@@H]1NC(=O)[C@H](CC2CC2)N(C)C(=O)C[C@@H](C(=O)N(C)CC)N(C)C(=O)[C@H](C2CCCC2)N(C)C(=O)C2(CC(C)(C)C2)NC(=O)[C@@H]2C[C@@H](C)CN2C(=O)[C@H](CCc2ccc(C(F)(F)F)c(OC)c2)NC(=O)CN(C)C(=O)[C@H](Cc2ccc(C)cc2)N2CC/C=C\C[C@@H](C2=O)N(C)C(=O)CN(C)C1=O [PP1902] . Return the value.
## Output 9.70

====

System: human lung cancer strain NCI-H441
Format: cell-based
Protocol: A test compound was dispensed into a U-bottom 384-well plate as 40 nL serially diluted dimethyl sulfoxide solutions using a liquid handler Echo (LABCYTE). […] This cell suspension was dispensed in an amount of 40 µL per well into a plate containing the test compound, and cultured at 37°C in a 5% carbon dioxide gas incubator. Four days later, 20 µL of CellTiter-Glo (registered trademark) (Promega) was added to each well and […] was measured. […]
*1 amine or outer side, *2 acyl side, *3 side chain or, on linkers, in order; H or OH if unused. Where a SMILES comes first, the peptide text is derived from it. Bridges are numbered along the chain shown (N, C = ends). [ ]: non-standard residue; d: D form. The star is where a group is joined. hPhe(3-Cl-4-CF3) = N[C@@H](CCc1ccc(C(F)(F)F)c(Cl)c1)C(=O)O; NPrPhe(4-CF3) = CCCN[C@@H](Cc1ccc(C(F)(F)F)cc1)C(=O)O; X37 = Cc1ccc(C[C@@H](C(=O)[*:2])N(CCC(C)C)[*:1])cc1; NMeGly(cPent) = CN[C@H](C(=O)O)C1CCCC1; NMeD = CN[C@@H](CC(=O)O)C(=O)O; NMeL = CN[C@@H](CC(C)C)C(=O)O; Morpholide = C1CN(*)CCO1; NMeA = CN[C@@H](C)C(=O)O; Piperidide = C1CCN(*)CC1; Ac5c = NC1(C(=O)O)CCCC1; Aze = O=C(O)[C@@H]1CCN1; Ac4c = NC1(C(=O)O)CCC1; Sar = CNCC(=O)O
Value type: IC50 (nM)
One number for each entry, in nM.

CC[C@H](C)[C@@H]1NC(=O)[C@H](CC(C)C)N(C)C(=O)C[C@@H](C(=O)N2CCOCC2)N(C)C(=O)[C@H](C2CCCC2)N(C)C(=O)C2(CCCC2)NC(=O)[C@@H]2CCCN2C(=O)[C@H](CCc2ccc(C(F)(F)F)c(Cl)c2)NC(=O)CN(C)C(=O)[C@H](Cc2ccc(C)cc2)N(CCC(C)C)C(=O)[C@@H]2CCN2C(=O)[C@H](C)N(C)C1=O [PP0086] ([NMeL]I[NMeA][Aze][X37][Sar][hPhe(3-Cl-4-CF3)]P[Ac5c][NMeGly(cPent)][NMeD]-Morpholide; lactam N-11); 6.4
CCO[C@@H]1C[C@H]2C(=O)NC3(CCC3)C(=O)N(C)[C@@H](C3CCCC3)C(=O)N(C)[C@H](C(=O)N3CCCC3)CC(=O)N(C)[C@H]3CCCCC/C=C/c4ccc(cc4)C[C@@H](C(=O)N(C)CC(=O)N[C@@H](CCc4ccc(Cl)c(Cl)c4)C(=O)N2C1)N1CC/C=C\C[C@@H](C1=O)N(C)C(=O)CN(C)C(=O)[C@H]([C@@H](C)CC)NC3=O [PP3049]; 12.6

// below: IC50 requested for another compound
## Input What measured IC50 goes with CCCN1C(=O)CN(C)C(=O)CN(C)C(=O)[C@H]([C@@H](C)CC)NC(=O)[C@H](CC(C)C)N(C)C(=O)C[C@@H](C(=O)N2CCCCC2)N(C)C(=O)[C@H](C2CCCC2)N(C)C(=O)C2(CCC2)NC(=O)[C@@H]2CCCN2C(=O)[C@H](CCc2ccc(C(F)(F)F)c(Cl)c2)NC(=O)CN(C)C(=O)[C@@H]1Cc1ccc(C(F)(F)F)cc1 [PP1930] ([NMeL]I[Sar][Sar][NPrPhe(4-CF3)][Sar][hPhe(3-Cl-4-CF3)]P[Ac4c][NMeGly(cPent)][NMeD]-Piperidide; lactam N-11) ?
## Output 7

====

Provide the reported Kd of each item.
Biological target: UniProt P01116
Assay: Binding to KRAS by surface plasmon resonance (SPR), dissociation constant KD
Settings: 1:1 binding model
Give bare numbers, in nM.

Consider the following illustrative entries.
CCO[C@@H]1C[C@H]2C(=O)NC3(CC(C)(C)C3)C(=O)N(C)[C@@H](C3CCCC3)C(=O)N(C)[C@H](C(=O)N(C)CC)CC(=O)N(C)[C@@H](CC(C)C)C(=O)N[C@@H]([C@@H](C)CC)C(=O)N(C)CC(=O)N(C)[C@H]3C/C=C\CCN(C3=O)[C@@H](Cc3ccc(C(F)F)cc3)C(=O)N(C)CC(=O)N[C@@H](CCc3cc(F)c4c(c3)CCC4)C(=O)N2C1; 0.84
CCO[C@@H]1C[C@H]2C(=O)NC3(CC(C)(C)C3)C(=O)N(C)[C@@H](C(CC)CC)C(=O)N(C)[C@H](C(=O)N(C)C)CC(=O)N(C)[C@@H](C(C)C)C(=O)N[C@@H]([C@@H](C)CC)C(=O)N(C)CC(=O)N(C)[C@H]3C/C=C\CCN(C3=O)[C@@H](CC3CCC(F)(F)CC3)C(=O)N(C)CC(=O)N[C@@H](CCc3cc(F)c(C(F)(F)F)c(F)c3)C(=O)N2C1; 1.6

## Input Item CCC[C@H]1C(=O)N[C@@H]([C@@H](C)CC)C(=O)N2CCC[C@H]2C(=O)N(C)[C@H]2C/C=C\CCN(C2=O)[C@@H](Cc2ccc(C(F)F)cc2)C(=O)N(C)CC(=O)N[C@@H](CCc2ccc(Cl)c(Cl)c2)C(=O)N2C[C@H](OCC)C[C@H]2C(=O)NC2(CC(C)(C)C2)C(=O)N(C)[C@@H](C(CC)CC)C(=O)N(C)[C@H](C(=O)N(C)C)CC(=O)N1C has what recorded Kd?
## Output 1

====

System: human lung cancer strain NCI-H441
Format: cell-based
So I've got a bunch of molecules here, and I need their pIC50 values.
Answers are plain numbers, as −log10 of the molar value.

CCO[C@@H]1C[C@H]2C(=O)NC3(CCC3)C(=O)N(C)[C@@H](C3CCCC3)C(=O)N(C)[C@H](C(=O)N(C)C)CC(=O)N(C)[C@@H](CC3CC3)C(=O)N[C@@H]([C@@H](C)CC)C(=O)N(C)CC(=O)N(C)[C@H]3CCCCN(C3=O)[C@@H](Cc3ccc(C(F)(F)F)cc3)C(=O)N(C)CC(=O)N[C@@H](CCc3cc(F)c(C(F)(F)F)c(F)c3)C(=O)N2C1; 8.42
CC[C@H](C)[C@@H]1NC(=O)[C@H](CC(C)C)N(C)C(=O)C[C@@H](C(=O)N2CCOCC2)N(C)C(=O)[C@H](C2CCC2)N(C)C(=O)C2(CCCC2)NC(=O)[C@@H]2CCCN2C(=O)[C@H](CCc2cc(F)c(C(F)(F)F)c(F)c2)NC(=O)CN(C)C(=O)[C@H](Cc2ccc(C(F)(F)F)cc2)N2CCCC[C@@H](C2=O)N(C)C(=O)CN(C)C1=O; 7.74

As a next step, examine the molecule that follows.
## Input Hello, I am looking for reported pIC50 with human lung cancer strain NCI-H441 for CC[C@H](C)[C@@H]1NC(=O)[C@H](CC(C)C)N(C)C(=O)C[C@@H](C(=O)N2CCOCC2)N(C)C(=O)[C@H](C2CCCC2)N(C)C(=O)C2(CCC2)NC(=O)[C@@H]2CC(F)(F)CN2C(=O)[C@H](CCc2cc(F)c(C(F)(F)F)c(F)c2)NC(=O)CN(C)C(=O)[C@H](Cc2ccc(C(F)(F)F)cc2)N2CCCC[C@@H](C2=O)N(C)C(=O)CN(C)C1=O . Could you help?
## Output 8.49
